# System: Escherichia coli TOP10
# experimental-details: shrunken log2 fold change of peptide-encoding DNA abundance (4.5 h post-induction vs induction); higher = less antimicrobial activity (less host growth inhibition)
# condition-description: time post-induction: 4.5 h; library: site-saturation at positions 5, 18, 19, 20
Listing of entries alongside the reported shrunken log2 fold change.
outcome-measure: shrunken log2 fold change

[[record]]
chain_sequence = "RRIRPRPPRLPRPRPRPRFTPRP"
outcome_measure = "shrunken log2 fold change"
value_measured = 0.116

[[record]]
chain_sequence = "RRIRFRPPRLPRPRPRPGNCPRP"
outcome_measure = "shrunken log2 fold change"
value_measured = 0.0888

[[record]]
chain_sequence = "RRIRLRPPRLPRPRPRPKMIPRP"
outcome_measure = "shrunken log2 fold change"
value_measured = -0.378

[[record]]
chain_sequence = "RRIRPRPPRLPRPRPRPWAEPRP"
outcome_measure = "shrunken log2 fold change"
value_measured = 0.166

[[record]]
chain_sequence = "RRIRWRPPRLPRPRPRPNVCPRP"
outcome_measure = "shrunken log2 fold change"
value_measured = 0.0917

[[record]]
chain_sequence = "RRIRQRPPRLPRPRPRPDVNPRP"
outcome_measure = "shrunken log2 fold change"
value_measured = -0.142

[[record]]
chain_sequence = "RRIRGRPPRLPRPRPRPNFMPRP"
outcome_measure = "shrunken log2 fold change"
value_measured = 0.0686

[[record]]
chain_sequence = "RRIRGRPPRLPRPRPRPMVEPRP"
outcome_measure = "shrunken log2 fold change"
value_measured = 0.446

[[record]]
chain_sequence = "RRIRYRPPRLPRPRPRPDVDPRP"
outcome_measure = "shrunken log2 fold change"
value_measured = -0.0562

[[record]]
chain_sequence = "RRIRCRPPRLPRPRPRPMLIPRP"
outcome_measure = "shrunken log2 fold change"
value_measured = -0.552

[[record]]
chain_sequence = "RRIRKRPPRLPRPRPRPWIYPRP"
outcome_measure = "shrunken log2 fold change"
value_measured = -0.00162

[[record]]
chain_sequence = "RRIRVRPPRLPRPRPRPIEDPRP"
outcome_measure = "shrunken log2 fold change"
value_measured = -0.0208

[[record]]
chain_sequence = "RRIRDRPPRLPRPRPRPGSLPRP"
outcome_measure = "shrunken log2 fold change"
value_measured = -0.0141

[[record]]
chain_sequence = "RRIRWRPPRLPRPRPRPNDTPRP"
outcome_measure = "shrunken log2 fold change"
value_measured = -0.268

[[record]]
chain_sequence = "RRIRVRPPRLPRPRPRPEKQPRP"
outcome_measure = "shrunken log2 fold change"
value_measured = 0.101

[[record]]
chain_sequence = "RRIRKRPPRLPRPRPRPTMIPRP"
outcome_measure = "shrunken log2 fold change"
value_measured = -0.0569

[[record]]
chain_sequence = "RRIRSRPPRLPRPRPRPIEVPRP"
outcome_measure = "shrunken log2 fold change"
value_measured = 0.0392

[[record]]
chain_sequence = "RRIRIRPPRLPRPRPRPIQLPRP"
outcome_measure = "shrunken log2 fold change"
value_measured = -0.058


###

# System: Escherichia coli TOP10;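 also: peptides expressed intracellularly from a pBAD plasmid library in pooled LB shake-flask culture, induced with 0.3% L-arabinose, DNA abundance read by NGS, three biological replicates, DESeq2 with apeglm shrinkage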
# experimental-details: shrunken log2 fold change of peptide-encoding DNA abundance (4.5 h post-induction vs induction); higher = less antimicrobial activity (less host growth inhibition)
# condition-description: time post-induction: 4.5 h; library: site-saturation at positions 5, 18, 19, 20
Respond with label 1 for shrunken log2 fold change values of -0.1 and above, label 0 for values below.

[[record]]
chain_sequence = "RRIRGRPPRLPRPRPRPIDFPRP"
class_assignment = "label 1"

[[record]]
chain_sequence = "RRIRCRPPRLPRPRPRPLKQPRP"
class_assignment = "label 0"

[[record]]
chain_sequence = "RRIRGRPPRLPRPRPRPFFLPRP"
class_assignment = "label 1"

[[record]]
chain_sequence = "RRIRSRPPRLPRPRPRPCCGPRP"
class_assignment = "label 1"

[[record]]
chain_sequence = "RRIRCRPPRLPRPRPRPIGPPRP"
class_assignment = "label 1"

[[record]]
chain_sequence = "RRIRNRPPRLPRPRPRPSVFPRP"
class_assignment = "label 0"

[[record]]
chain_sequence = "RRIRNRPPRLPRPRPRPISSPRP"
class_assignment = "label 1"

[[record]]
chain_sequence = "RRIRQRPPRLPRPRPRPFCYPRP"
class_assignment = "label 0"

[[record]]
chain_sequence = "RRIRTRPPRLPRPRPRPGFHPRP"
class_assignment = "label 0"

[[record]]
chain_sequence = "RRIRQRPPRLPRPRPRPVIDPRP"
class_assignment = "label 1"

[[record]]
chain_sequence = "RRIRMRPPRLPRPRPRPIWCPRP"
class_assignment = "label 0"

[[record]]
chain_sequence = "RRIRERPPRLPRPRPRPPDTPRP"
class_assignment = "label 0"

[[record]]
chain_sequence = "RRIRHRPPRLPRPRPRPQCHPRP"
class_assignment = "label 0"

[[record]]
chain_sequence = "RRIRIRPPRLPRPRPRPLHYPRP"
class_assignment = "label 0"

[[record]]
chain_sequence = "RRIRRRPPRLPRPRPRPTSEPRP"
class_assignment = "label 1"

[[record]]
chain_sequence = "RRIRTRPPRLPRPRPRPQYQPRP"
class_assignment = "label 0"

[[record]]
chain_sequence = "RRIRCRPPRLPRPRPRPLLTPRP"
class_assignment = "label 1"

[[record]]
chain_sequence = "RRIRIRPPRLPRPRPRPCCFPRP"
class_assignment = "label 0"

[[record]]
chain_sequence = "RRIRGRPPRLPRPRPRPIIRPRP"
class_assignment = "label 1"

[[record]]
chain_sequence = "RRIRMRPPRLPRPRPRPDLFPRP"
class_assignment = "label 1"

[[record]]
chain_sequence = "RRIRGRPPRLPRPRPRPCCQPRP"
class_assignment = "label 1"

[[record]]
chain_sequence = "RRIRMRPPRLPRPRPRPQCEPRP"
class_assignment = "label 1"

[[record]]
chain_sequence = "RRIRKRPPRLPRPRPRPLVMPRP"
class_assignment = "label 1"

[[record]]
chain_sequence = "RRIRRRPPRLPRPRPRPPSPPRP"
class_assignment = "label 1"

[[record]]
chain_sequence = "RRIRERPPRLPRPRPRPLCNPRP"
class_assignment = "label 0"

[[record]]
chain_sequence = "RRIRHRPPRLPRPRPRPNALPRP"
class_assignment = "label 1"

[[record]]
chain_sequence = "RRIRTRPPRLPRPRPRPDHRPRP"
class_assignment = "label 1"

[[record]]
chain_sequence = "RRIRHRPPRLPRPRPRPNQQPRP"
class_assignment = "label 1"

[[record]]
chain_sequence = "RRIRLRPPRLPRPRPRPKIPPRP"
class_assignment = "label 0"

[[record]]
chain_sequence = "RRIRMRPPRLPRPRPRPDTFPRP"
class_assignment = "label 1"

[[record]]
chain_sequence = "RRIRGRPPRLPRPRPRPFMEPRP"
class_assignment = "label 0"

[[record]]
chain_sequence = "RRIRDRPPRLPRPRPRPGLYPRP"
class_assignment = "label 1"

[[record]]
chain_sequence = "RRIRLRPPRLPRPRPRPCGHPRP"
class_assignment = "label 1"

[[record]]
chain_sequence = "RRIRSRPPRLPRPRPRPIDIPRP"
class_assignment = "label 0"

[[record]]
chain_sequence = "RRIRNRPPRLPRPRPRPDMSPRP"
class_assignment = "label 1"

[[record]]
chain_sequence = "RRIRLRPPRLPRPRPRPPNNPRP"
class_assignment = "label 0"

[[record]]
chain_sequence = "RRIRDRPPRLPRPRPRPYYKPRP"
class_assignment = "label 0"

[[record]]
chain_sequence = "RRIRGRPPRLPRPRPRPTCGPRP"
class_assignment = "label 1"

[[record]]
chain_sequence = "RRIRGRPPRLPRPRPRPTEHPRP"
class_assignment = "label 1"

[[record]]
chain_sequence = "RRIRERPPRLPRPRPRPAVFPRP"
class_assignment = "label 1"

[[record]]
chain_sequence = "RRIRARPPRLPRPRPRPQIIPRP"
class_assignment = "label 1"

[[record]]
chain_sequence = "RRIRQRPPRLPRPRPRPLRKPRP"
class_assignment = "label 1"

